- Study system: Human CARM1 (PRMT4) (Homo sapiens, UniProt Q86X55)
- Construct: Flag-CARM1-His was eluted with 200 ug/ml FLAG peptide in buffer A
- Sequence (Q86X55 1-585 isoform Q86X55-1): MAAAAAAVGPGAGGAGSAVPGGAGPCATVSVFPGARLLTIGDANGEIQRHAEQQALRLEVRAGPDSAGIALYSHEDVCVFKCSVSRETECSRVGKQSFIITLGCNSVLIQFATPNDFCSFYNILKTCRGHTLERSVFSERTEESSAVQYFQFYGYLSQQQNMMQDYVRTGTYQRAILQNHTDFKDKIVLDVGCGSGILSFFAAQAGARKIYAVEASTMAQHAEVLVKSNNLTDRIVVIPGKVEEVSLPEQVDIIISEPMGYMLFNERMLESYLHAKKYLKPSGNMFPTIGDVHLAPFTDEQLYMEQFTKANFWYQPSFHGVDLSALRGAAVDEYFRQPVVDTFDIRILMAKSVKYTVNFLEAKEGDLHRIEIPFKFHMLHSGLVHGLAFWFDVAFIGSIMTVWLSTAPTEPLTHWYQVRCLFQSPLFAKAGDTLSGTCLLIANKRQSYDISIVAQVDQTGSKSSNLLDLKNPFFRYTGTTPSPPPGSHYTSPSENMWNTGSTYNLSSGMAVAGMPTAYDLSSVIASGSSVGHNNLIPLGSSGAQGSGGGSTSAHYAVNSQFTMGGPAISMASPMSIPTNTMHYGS
- Test method notes: CARM1 enzyme assay on peptide substrates (3H-SAM Flashplate)
- Measurement context: Biochemical assay; CARM1 0.25 nM, 3H-SAM 30 nM, peptide 250 nM; read-out: Biochem IC50
- Text: S-adenosylmethionine (SAM), S-adenosylhomocysteine (SAH), bicine, Tween20, dimethylsulfoxide (DMSO), bovine skin gelatin (BSG), sodium butyrate and Tris(2-carboxyethyl)phosphine hydrochloride solution (TCEP) were purchased from Sigma-Aldrich at the highest level of purity possible. ^3H-SAM was purchase from American Radiolabeled Chemicals with a specific activity of 80 Ci/mmol. 384-well streptavidin Flashplates were purchased from PerkinElmer. […]
Test readout: pIC50
Please keep in mind that pIC50 is minus log10 of the molar concentration; only the number is needed.

Some solved entries appear below for comparison.
CNC[C@@H](O)COc1ccc(Cl)c(-c2nc(-c3c(C)noc3C)c(C)c(N3Cc4cnc(N5CCOCC5)nc4C3)n2)c1    8.48
CNC[C@@H](O)COc1ccc(Cl)c(-c2nc(-c3c(C)noc3C)c(C)c(N3Cc4cnc(OCC(F)F)nc4C3)n2)c1    8.11
CNC[C@@H](O)COc1ccc(Cl)c(-c2nc(-c3c(C)noc3C)c(C)c(N3Cc4ccc(N5CC(F)C5)nc4C3)n2)c1    8.66

For the compound `CNC[C@@H](O)COc1ccc(Cl)c(-c2nc(-c3c(C)noc3C)c(C)c(N3CC4(C3)CN([C@H](C)C(F)(F)F)C4)n2)c1` , what pIC50 is on record? 8.32

Another compound: `CNC[C@@H](O)COc1ccc(F)c(-c2nc(-c3c(C)noc3C)c(C)c(N3Cc4cnn(CC(F)(F)F)c4C3)n2)c1` 8.51

Another compound: `CCc1onc(C)c1-c1nc(-c2cc(OC[C@H](O)CNC)ccc2Cl)nc(N2CC3(CN(CC(F)(F)F)C3)C2)c1C` 8.10

Another compound: `CNC[C@@H](O)COc1ccc(Cl)c(-c2nc(-c3c(C)noc3C)c(C)c(N3C[C@H]4CN(CC(F)F)C[C@@H]4C3)n2)c1` 7.99

Another compound: `CC[C@H]1CN(c2nc(-c3cc(OC[C@H](O)CNC)ccc3Cl)nc(-c3c(C)noc3C)c2C)CCN1CC(F)F` 8.03

Another compound: CNC[C@@H](O)COc1ccc(Cl)c(-c2nc(-c3c(C)noc3C)c(C)c(N3CC4(CCC4F)C3)n2)c1 (stereo partly shown) 8.39

Another compound: `CNC[C@@H](O)COc1ccc(Cl)c(-c2nc(-c3c(I)cnn3C)c(C)c(N3Cc4cccnc4C3)n2)c1` 8.92

---

- Study system: Human CARM1 (PRMT4) (Homo sapiens, UniProt Q86X55)
- Construct: Flag-CARM1-His was eluted with 200 ug/ml FLAG peptide in buffer A
- Test method notes: CARM1 enzyme assay on peptide substrates (3H-SAM Flashplate)
- Measurement context: Biochemical assay; CARM1 0.25 nM, 3H-SAM 30 nM, peptide 250 nM; read-out: Biochem IC50
Test readout: log10(IC50) (log10 of the value in nM)
Hello, just confirming the data are log10 of IC50 with units of nM.

CNC[C@@H](O)COc1ccc(Cl)c(-c2nc(-c3c(C)noc3C)c(C)c(N3CC4(CC(OCC(F)F)C4)C3)n2)c1 [Example 290]    0.53
CC[C@@H]1CN(c2nc(-c3cc(OC[C@H](O)CNC)ccc3Cl)nc(-c3c(C)noc3C)c2C)CCN1CC(F)F [Example 203]    0.66
CNC[C@@H](O)COc1ccc(Cl)c(-c2nc(-c3c(C)noc3C)c(C)c(N3Cc4cnc(N5CCOC5=O)nc4C3)n2)c1 [Example 181]    0.26
CNC[C@@H](O)COc1ccc(Cl)c(-c2nc(-c3c(C)noc3C)c(C)c(N3CC4(CCC(C(=O)N5CCOCC5)CC4)C3)n2)c1 [Example 165]    0.76

For the molecule CNC[C@@H](O)COc1ccc(Cl)c(-c2nc(-c3c(C)noc3C)c(C)c(N3CC(C)(C(=O)N4CCC4)C3)n2)c1 [Example 187] , what log10(IC50) is on record? 0.76

Another molecule: CNC[C@@H](O)COc1ccc(Cl)c(-c2nc(-c3c(C)noc3C)c(C)c(N3CC4(CN(C(=O)OC)C4)C3)n2)c1 [Example 43] 1.00

Another molecule: CNC[C@@H](O)COc1ccc(Cl)c(-c2nc(-c3c(C)noc3C)c(C)c(N3Cc4nccc(OCC(F)F)c4C3)n2)c1 [Example 235] -0.15

Another molecule: CNC[C@@H](O)COc1ccc(Cl)c(-c2nc(-c3c(C)noc3C)c(C)c(N3CC4=C(C3)CN(c3nc(-c5cc(OC[C@H](O)CNC)ccc5Cl)nc(-c5c(C)noc5C)c3C)C4)n2)c1 [Example 198] -0.40

Another molecule: CCc1onc(C)c1-c1nc(-c2cc(OC[C@H](O)CNC)ccc2Cl)nc(N2Cc3cccnc3C2)c1C [Example 207] 0.18

---

- Study system: Human CARM1 (PRMT4) (Homo sapiens)
- Construct: Flag-CARM1-His was eluted with 200 ug/ml FLAG peptide in buffer A
- Test method notes: CARM1 enzyme assay on peptide substrates (3H-SAM Flashplate)
- Measurement context: Biochemical assay; CARM1 0.25 nM, 3H-SAM 30 nM, peptide 250 nM; read-out: Biochem IC50
Reported pIC50 by item:
Please keep in mind that pIC50 is minus log10 of the molar concentration; only the number is needed.

Some solved entries appear below for comparison.
CNC[C@@H](O)COc1ccc(Cl)c(-c2nc(-c3c(C)noc3C)c(C)c(N3CC4(CC(N(C)CC(F)(F)F)C4)C3)n2)c1    8.13
CNC[C@@H](O)COc1ccc(Cl)c(-c2nc(-c3c(C)c(Br)nn3C)c(C)c(N3CC4(CC(OC(F)(F)F)C4)C3)n2)c1    8.30

For the compound `CNC[C@@H](O)COc1ccc(Cl)c(-c2nc(-c3c(C)noc3C)c(C)c(N3CC4(CCN(C(=O)N(C)C)C4)C3)n2)c1` , what pIC50 is on record? 7.90

Another compound: `CNC[C@@H](O)COc1ccc(Cl)c(-c2nc(-c3c(C)noc3C)c(C)c(N3C[C@]4(C)CN(C(=O)OC)C[C@]4(C)C3)n2)c1` 8.11

Another compound: `CNC[C@@H](O)COc1ccc(Cl)c(-c2nc(-c3c(C)noc3C)c(C)c(N3CC4(CC(C#N)C4)C3)n2)c1` 8.19

Another compound: `CNC[C@@H](O)COc1ccc(Cl)c(-c2nc(-c3c(C)noc3C)c(C)c(N3Cc4nccc(C)c4C3)n2)c1` 8.66

---

- Study system: Human CARM1 (PRMT4) (Homo sapiens, UniProt Q86X55)
- Construct: Flag-CARM1-His was eluted with 200 ug/ml FLAG peptide in buffer A
- Test method notes: CARM1 enzyme assay on peptide substrates (3H-SAM Flashplate)
- Measurement context: Biochemical assay; CARM1 0.25 nM, 3H-SAM 30 nM, peptide 250 nM; read-out: Biochem IC50
Test readout: IC50 (nM)
Only the number, expressed in nM, is required.

Some solved entries appear below for comparison.
CCn1ncc(Cl)c1-c1nc(-c2cc(OC[C@H](O)CNC)ccc2Cl)nc(N2Cc3cncnc3C2)c1C    4.8
CNC[C@@H](O)COc1ccc(Cl)c(-c2nc(-c3c(C)noc3C)c(C)c(N3CC(C)(C#N)C3)n2)c1    4.1
CNC[C@@H](O)COc1ccc(Cl)c(-c2nc(-c3c(C)noc3C)c(C)c(N3Cc4cccnc4C3C)n2)c1 (stereo partly shown)    3.4
CNC[C@@H](O)COc1ccc(Cl)c(-c2nc(-c3c(C)c(Cl)nn3C)c(C)c(N3Cc4cnc(N5CC(F)(F)C5)nc4C3)n2)c1    2.7
CNC[C@@H](O)COc1ccc(Cl)c(-c2nc(-c3c(C)noc3C)c(C)c(N3CC4(CCN(C(C)=O)CC4)C3)n2)c1    10.8
CNC[C@@H](O)COc1ccc(Cl)c(-c2nc(-c3c(C)noc3C)c(C)c(N3Cc4ccc(OC)nc4C3)n2)c1    1.9
CNC[C@@H](O)COc1ccc(Cl)c(-c2nc(-c3c(C)noc3C)c(C)c(N3CC4(CCN(CC(F)F)C4)C3)n2)c1    7
CNC[C@@H](O)COc1ccc(Cl)c(-c2nc(-c3c(C)c(Br)nn3C)c(C)c(N3CC4(CN(CC(F)(F)F)C4)C3)n2)c1    8.35
CNC[C@@H](O)COc1ccc(Cl)c(-c2nc(-c3c(C)cnn3C)c(C)c(N3Cc4cccnc4C3)n2)c1    2.1
CNC[C@@H](O)COc1ccc(Cl)c(-c2nc(-c3c(C)noc3C)c(C)c(N3Cc4cc(C(F)(F)F)cnc4C3)n2)c1    2.2

For the compound `CNC[C@@H](O)COc1ccc(Cl)c(-c2nc(-c3c(C)noc3C)c(C)c(N3Cc4c(C)nn(CC(F)(F)F)c4C3)n2)c1` , what IC50 is on record? 3.6

Another compound: `CNC[C@@H](O)COc1ccc(Cl)c(-c2nc(-c3c(C)c(Cl)nn3C)c(C)c(N3Cc4cnc(N(C)C)nc4C3)n2)c1` 2.5

Another compound: `CNC[C@@H](O)COc1ccc(Cl)c(-c2nc(-c3c(C)noc3C)c(C)c(N3CC4(CCCN(CC(F)(F)F)C4)C3)n2)c1` 7.99
